meta.source: the supplement of paper PMC11061612

Consider the following compounds and their measured Bliss excess readings.
- Tested on: TE-1 (Esophageal Squamous Cell Carcinoma);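 note: after 72 h of two-drug dosing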
- experiment-description: Bliss excess, mean over the matrix (fraction); higher = more synergy
Number only, please.

Return reported Bliss excess; argument: CC(=O)c1c(C)c2cnc(Nc3ccc(N4CCNCC4)cn3)nc2n(C2CCCC2)c1=O [Palbociclib] + Cn1cnc2c(F)c(Nc3ccc(Br)cc3Cl)c(C(=O)NOCCO)cc21 [Selumetinib] (first compound max 10 µM, 7x7, partner max 10 µM)
0.0048

Also Cc1c2c(nn1C)CSCc1cc(n(C)n1)CSc1cc(c3ccccc3c1)OCCCc1c(C(=O)O)n(C)c3c-2c(Cl)ccc13 [AZD5991] + C=CCn1c(=O)c2cnc(Nc3ccc(N4CCN(C)CC4)cc3)nc2n1-c1cccc(C(C)(C)O)n1 [AZD1775] (first compound max 1 µM, partner max 1 µM) , if possible.
-0.0456

Also COc1cc2c(cc1OCCCCCOc1cc3c(cc1OC)C(=O)N1C=C(C)C[C@H]1C=N3)N=C[C@@H]1CC(C)=CN1C2=O [SG3199] + O=C(c1cc(Cc2n[nH]c(=O)c3ccccc23)ccc1F)N1CCN(C(=O)C2CC2)CC1 [Olaparib] (first compound max 0.001 µM, 7x7, partner max 10 µM) , if possible.
-0.0286
